Experiment summary: Area under the curve time curve value in sprague dawley rat was determined at a dosage of 3 mg/kg
Assay type: ADME, organism-based
Design: dose 3 mg/kg
Study conditions: in vivo
Entries and their measured AUC follow.
Measured endpoint: AUC (µM·h)

molecule=N=C(N)c1ccc2cc(C(=O)Nc3ccccc3)cc(-c3ccoc3)c2c1 result_number=5
molecule=N=C(N)c1ccc2cc(CCc3ccccc3)cc(-c3ccoc3)c2c1 result_number=17.6
molecule="N=C(N)c1ccc2cc(C3CC3c3ccccc3)cc(-c3ccoc3)c2c1 (stereo unspecified)" result_number=14.5
molecule=N=C(N)c1ccc2cc(CCc3ccccc3)cc(Nc3ncccn3)c2c1 result_number=4.2
molecule="N=C(N)c1ccc2cc(C3CC3c3ccccc3)ccc2c1 (stereo unspecified)" result_number=11.6
molecule=N=C(N)c1ccc2cc(C(=O)Nc3ccccc3)ccc2c1 result_number=8.2

* * *

System name: UniProt P00749
pKi: −log10 of the molar value.
pKi vs 7: at or above is yes, below is no.

compound=N=C(N)c1ccc2cc(/C=C/c3ccccc3)cc(-c3ccoc3)c2c1 label_class=no
compound=N=C(N)c1ccc2cc(C(=O)Nc3ccccc3)cc(Br)c2c1 label_class=no
compound=N=C(N)c1ccc2cc(/C=C/c3ccccc3)cc(Nc3ncccn3)c2c1 label_class=yes
compound=N=C(N)c1ccc2cc(C(=O)Nc3ccccc3)cc(Nc3ncccn3)c2c1 label_class=no
compound="CN1CCc2ccc(C3CC3c3ccc4cc(C(=N)N)ccc4c3)cc2C1C(C)(C)C (stereo unspecified)" label_class=no
compound=N=C(N)c1ccc2cc(CCc3ccccc3)cc(-c3ccoc3)c2c1 label_class=no

* * *

Please consider the recorded pKi for Kallikrein-1 (Homo sapiens, UniProt P06870) in what follows.
pKi: −log10 of the molar value.
Measured endpoint: pKi

compound="CC(C)Oc1cccc(C2CC2c2ccc3cc(C(=N)N)ccc3c2)c1 (stereo unspecified)" result_number=5.85
compound="CC(C)C1c2cc(C3CC3c3ccc4cc(C(=N)N)ccc4c3)ccc2CCN1C (stereo unspecified)" result_number=6.24
compound="N=C(N)c1ccc2cc(C3CC3c3ccc4c(c3)C(C3CCCCC3)=NCC4)ccc2c1 (stereo unspecified)" result_number=6.69
compound=N=C(N)c1ccc2cc(C(=O)Nc3ccccc3)cc(Br)c2c1 result_number=6.00
compound="CC(C)C1=NCCc2ccc(C3CC3c3ccc4cc(C(=N)N)ccc4c3)cc21 (stereo unspecified)" result_number=6.28
compound="CN1CCc2ccc(C3CC3c3ccc4cc(C(=N)N)ccc4c3)cc2C1C1CCCCC1 (stereo unspecified)" result_number=6.53
compound=N=C(N)c1ccc2cc(/C=C/c3ccccc3)cc(Nc3ncccn3)c2c1 result_number=7.38
compound=N=C(N)c1ccc2cc(/C=C/c3ccccc3)ccc2c1 result_number=6.00
compound=N=C(N)c1ccc2cc(CCc3ccccc3)cc(Nc3ncccn3)c2c1 result_number=6.81
compound="N=C(N)c1ccc2cc(C3CC3c3ccccc3)cc(Nc3ncccn3)c2c1 (stereo unspecified)" result_number=7.27
compound=N=C(N)c1ccc2cc(/C=C/c3ccccc3)cc(-c3ccoc3)c2c1 result_number=7.08

* * *

Experiment summary: Area under the curve time curve value in sprague dawley rat was determined at a dosage of 3 mg/kg
Format: ADME, organism-based
Set-up: dose 3 mg/kg
Study conditions: Sprague-Dawley, in vivo, read-out: AUC
The label depends only on AUC: Yes if it is at least 500 nM·h, No if it is smaller.

molecule=N=C(N)c1ccc2cc(CCc3ccccc3)cc(Br)c2c1 label_class=Yes
molecule="CN1CCc2ccc(C3CC3c3ccc4cc(C(=N)N)ccc4c3)cc2C1C1CCCCC1 (stereo unspecified)" label_class=Yes
molecule=N=C(N)c1ccc2cc(C(=O)Nc3ccccc3)cc(Nc3ncccn3)c2c1 label_class=No
molecule="CC(C)C1c2cc(C3CC3c3ccc4cc(C(=N)N)ccc4c3)ccc2CCN1C (stereo unspecified)" label_class=No
molecule="N=C(N)c1ccc2cc(C3CC3c3ccc4c(c3)C(C3CCCCC3)=NCC4)ccc2c1 (stereo unspecified)" label_class=Yes
molecule="CC1c2cc(C3CC3c3ccc4cc(C(=N)N)ccc4c3)ccc2CCN1C (stereo unspecified)" label_class=Yes
molecule="N=C(N)c1ccc2cc(C3CC3c3ccccc3)cc(Br)c2c1 (stereo unspecified)" label_class=Yes
molecule="CC(C)Oc1cccc(C2CC2c2ccc3cc(C(=N)N)ccc3c2)c1 (stereo unspecified)" label_class=Yes
molecule=N=C(N)c1ccc2cc(CCc3ccccc3)ccc2c1 label_class=Yes
molecule="N=C(N)c1ccc2cc(C3CC3c3ccccc3)cc(Nc3ncccn3)c2c1 (stereo unspecified)" label_class=No

* * *

Experiment summary: in vivo
Study conditions: Sprague-Dawley, rat, 3 mg/kg
Description: Clearance value in sprague dawley rat was determined at a dosage of 3 mg/kg
Labelling: clearance reported below 200 mL/min/kg becomes YES; at or above becomes NO.

molecule="N=C(N)c1ccc2cc(C3CC3c3ccc4c(c3)C(C3CCCCC3)=NCC4)ccc2c1 (stereo not drawn)" label_class=YES
molecule="CC1c2cc(C3CC3c3ccc4cc(C(=N)N)ccc4c3)ccc2CCN1C (stereo not drawn)" label_class=YES
molecule="CC(C)C1c2cc(C3CC3c3ccc4cc(C(=N)N)ccc4c3)ccc2CCN1C (stereo not drawn)" label_class=NO
molecule="CN1CCc2ccc(C3CC3c3ccc4cc(C(=N)N)ccc4c3)cc2C1C1CCCCC1 (stereo not drawn)" label_class=YES
molecule="N=C(N)c1ccc2cc(C3CC3c3ccccc3)cc(Br)c2c1 (stereo not drawn)" label_class=YES
molecule="CC(C)Oc1cccc(C2CC2c2ccc3cc(C(=N)N)ccc3c2)c1 (stereo not drawn)" label_class=YES
molecule="CC(C)C1=NCCc2ccc(C3CC3c3ccc4cc(C(=N)N)ccc4c3)cc21 (stereo not drawn)" label_class=YES
molecule=N=C(N)c1ccc2cc(CCc3ccccc3)cc(Br)c2c1 label_class=YES
molecule=N=C(N)c1ccc2cc(/C=C/c3ccccc3)cc(-c3ccoc3)c2c1 label_class=YES
molecule=N=C(N)c1ccc2cc(C(=O)Nc3ccccc3)cc(Nc3ncccn3)c2c1 label_class=NO
molecule="N=C(N)c1ccc2cc(C3CC3c3ccccc3)cc(Nc3ncccn3)c2c1 (stereo not drawn)" label_class=NO
molecule=N=C(N)c1ccc2cc(CCc3ccccc3)ccc2c1 label_class=YES

* * *

Quick reference for pKi among some molecules
Experiment summary: Binding affinity value against thrombin
pKi: −log10 of the molar value.
Measured endpoint: pKi

molecule=N=C(N)c1ccc2cc(/C=C/c3ccccc3)ccc2c1 result_number=5.28
molecule=N=C(N)c1ccc2cc(/C=C/c3ccccc3)cc(Nc3ncccn3)c2c1 result_number=6.40
molecule="CC(C)C1=NCCc2ccc([C@H]3CC3c3ccc4cc(C(=N)N)ccc4c3)cc21 (stereo partly specified)" result_number=5.75
molecule=N=C(N)c1ccc2cc(CCc3ccccc3)cc(Nc3ncccn3)c2c1 result_number=6.72
molecule="CN1CCc2ccc(C3CC3c3ccc4cc(C(=N)N)ccc4c3)cc2C1C1CCCCC1 (stereo unspecified)" result_number=6.00
molecule="N=C(N)c1ccc2cc(C3CC3c3ccccc3)cc(Br)c2c1 (stereo unspecified)" result_number=6.30

* * *

pKi: −log10 of the molar value.
// Tissue-type plasminogen activator (Homo sapiens) pKi records
Measured endpoint: pKi

molecule="CC(C)C1=NCCc2ccc(C3CC3c3ccc4cc(C(=N)N)ccc4c3)cc21 (stereo not given)" system_name="Tissue-type plasminogen activator (Homo sapiens)" measured_endpoint=pKi result_number=5.32
molecule=N=C(N)c1ccc2cc(CCc3ccccc3)cc(Nc3ncccn3)c2c1 system_name="Tissue-type plasminogen activator (Homo sapiens)" measured_endpoint=pKi result_number=5.24
molecule=N=C(N)c1ccc2cc(/C=C/c3ccccc3)cc(-c3ccoc3)c2c1 system_name="Tissue-type plasminogen activator (Homo sapiens)" measured_endpoint=pKi result_number=5.35
molecule=N=C(N)c1ccc2cc(/C=C/c3ccccc3)cc(Br)c2c1 system_name="Tissue-type plasminogen activator (Homo sapiens)" measured_endpoint=pKi result_number=4.87
molecule="CN1CCc2ccc(C3CC3c3ccc4cc(C(=N)N)ccc4c3)cc2C1C1CCCCC1 (stereo not given)" system_name="Tissue-type plasminogen activator (Homo sapiens)" measured_endpoint=pKi result_number=4.72

* * *

System name: Trypsin (Sus scrofa, UniProt P00761)
Sequence (P00761 whole entry): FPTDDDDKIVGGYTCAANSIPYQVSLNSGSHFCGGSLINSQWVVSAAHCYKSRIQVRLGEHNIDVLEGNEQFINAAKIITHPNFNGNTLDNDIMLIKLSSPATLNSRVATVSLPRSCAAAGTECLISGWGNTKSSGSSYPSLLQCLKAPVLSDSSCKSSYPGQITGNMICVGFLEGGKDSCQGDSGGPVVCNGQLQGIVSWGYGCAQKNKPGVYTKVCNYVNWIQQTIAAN
pKi: −log10 of the molar value.
pKi listing for selected molecules.
Measured endpoint: pKi

molecule=N=C(N)c1ccc2cc(C(=O)Nc3ccccc3)cc(Nc3ncccn3)c2c1 system_name="Trypsin (Sus scrofa, UniProt P00761)" measured_endpoint=pKi result_number=7.40
molecule="N=C(N)c1ccc2cc(C3CC3c3ccc4c(c3)C(C3CCCCC3)=NCC4)ccc2c1 (configuration not stated)" system_name="Trypsin (Sus scrofa, UniProt P00761)" measured_endpoint=pKi result_number=6.37
molecule=N=C(N)c1ccc2cc(/C=C/c3ccccc3)cc(Nc3ncccn3)c2c1 system_name="Trypsin (Sus scrofa, UniProt P00761)" measured_endpoint=pKi result_number=7.08
molecule="N=C(N)c1ccc2cc(C3CC3c3ccccc3)cc(Nc3ncccn3)c2c1 (configuration not stated)" system_name="Trypsin (Sus scrofa, UniProt P00761)" measured_endpoint=pKi result_number=7.27
molecule="CC(C)C1c2cc(C3CC3c3ccc4cc(C(=N)N)ccc4c3)ccc2CCN1C (configuration not stated)" system_name="Trypsin (Sus scrofa, UniProt P00761)" measured_endpoint=pKi result_number=7.05
molecule=N=C(N)c1ccc2cc(/C=C/c3ccccc3)cc(-c3ccoc3)c2c1 system_name="Trypsin (Sus scrofa, UniProt P00761)" measured_endpoint=pKi result_number=7.02
molecule=N=C(N)c1ccc2cc(C(=O)Nc3ccccc3)cc(-c3ccoc3)c2c1 system_name="Trypsin (Sus scrofa, UniProt P00761)" measured_endpoint=pKi result_number=7.35
molecule=N=C(N)c1ccc2cc(CCc3ccccc3)cc(Nc3ncccn3)c2c1 system_name="Trypsin (Sus scrofa, UniProt P00761)" measured_endpoint=pKi result_number=6.78
molecule="CN1CCc2ccc(C3CC3c3ccc4cc(C(=N)N)ccc4c3)cc2C1C1CCCCC1 (configuration not stated)" system_name="Trypsin (Sus scrofa, UniProt P00761)" measured_endpoint=pKi result_number=7.51
molecule="N=C(N)c1ccc2cc(C3CC3c3ccc4c(c3)C(c3ccccc3)=NCC4)ccc2c1 (configuration not stated)" system_name="Trypsin (Sus scrofa, UniProt P00761)" measured_endpoint=pKi result_number=6.78
molecule=N=C(N)c1ccc2cc(/C=C/c3ccccc3)ccc2c1 system_name="Trypsin (Sus scrofa, UniProt P00761)" measured_endpoint=pKi result_number=6.46
molecule="CC(C)Oc1cccc(C2CC2c2ccc3cc(C(=N)N)ccc3c2)c1 (configuration not stated)" system_name="Trypsin (Sus scrofa, UniProt P00761)" measured_endpoint=pKi result_number=6.85
